- protocol.notes: Inhibition of porcine Pancreatic elastase with 10 min pre-incubation
Measured pIC50, listed per entry for reference.
Schema: pIC50 number; meaning minus log10 of the concentration expressed in molar units.

{"columns": ["molecule.smiles", "value.observed"],
 "data": [
  ["Cc1ccc(S(=O)(=O)O[C@H]2C(=O)N3[C@@H](C(=O)OCOC(=O)C(C)(C)C)C(C)(C)S(=O)(=O)[C@H]23)cc1", 6.31]
]}

Please report the recorded pIC50 for `CC(C)(C)C(=O)OCOC(=O)[C@@H]1N2C(=O)[C@H](OS(C)(=O)=O)[C@H]2S(=O)(=O)C1(C)C` .
6.27

====

Listed below: IC50 values for each entry.
- protocol.notes: Inhibition of porcine Pancreatic elastase without pre-incubation
Return type: number; implicit unit µM.

// worked examples, IC50 included
{"columns": ["molecule.smiles", "IC50 [µM]"],
 "data": [
  ["CC1(C)[C@H](C(=O)OCc2ccccc2)N2C(=O)[C@H](OS(C)(=O)=O)[C@H]2S1(=O)=O", 2.2],
  ["Cc1ccc(S(=O)(=O)O[C@H]2C(=O)N3[C@@H](C(=O)OCc4ccccc4)C(C)(C)S(=O)(=O)[C@H]23)cc1", 23]
]}

Shift focus to the following entry.
Fill in: IC50 of `CC(C)(C)C(=O)OCOC(=O)[C@@H]1N2C(=O)[C@H](Cl)[C@H]2S(=O)(=O)C1(C)C` is ___
280

====

- protocol.notes: Inhibition of porcine Pancreatic elastase without pre-incubation
readout.label: pIC50
API: returns pIC50 as number; meaning -log10 of concentration in mol/L.

Some molecules with known pIC50 results, for comparison:
{"columns": ["molecule.smiles", "pIC50"],
 "data": [
  ["CC(C)(C)C(=O)OCOC(=O)[C@@H]1N2C(=O)[C@H](Cl)[C@H]2S(=O)(=O)C1(C)C", 3.66],
  ["CC1(C)[C@H](C(=O)OCc2ccccc2)N2C(=O)[C@H](OS(C)(=O)=O)[C@H]2S1(=O)=O", 6.89]
]}

Now look at this one.
Reported pIC50, molecule `Cc1ccc(S(=O)(=O)O[C@H]2C(=O)N3[C@@H](C(=O)OCc4ccccc4)C(C)(C)S(=O)(=O)[C@H]23)cc1` : ____
6.82

====

- protocol.notes: Inhibition of porcine Pancreatic elastase without pre-incubation
pIC50 by entry:
The quantity pIC50 is defined as the negative base-10 logarithm of the molar concentration.

{"columns": ["molecule.smiles", "pIC50"],
 "data": [
  ["CC(C)(C)C(=O)OCOC(=O)[C@@H]1N2C(=O)[C@H](OS(C)(=O)=O)[C@H]2S(=O)(=O)C1(C)C", 5.37],
  ["Cc1ccc(S(=O)(=O)O[C@H]2C(=O)N3[C@@H](C(=O)OCOC(=O)C(C)(C)C)C(C)(C)S(=O)(=O)[C@H]23)cc1", 5.68],
  ["CC1(C)[C@H](C(=O)OCc2ccccc2)N2C(=O)[C@H](OS(=O)(=O)C(F)(F)F)[C@H]2S1(=O)=O", 6.17]
]}

For the next question, use this compound.
Need pIC50, item `CC(C)(C)C(=O)OCOC(=O)[C@@H]1N2C(=O)[C@H](OS(=O)(=O)C(F)(F)F)[C@H]2S(=O)(=O)C1(C)C`
6.00
